Data provenance: patent US8778919B2

molecular target: CDK1/cyclinB (h) (Homo sapiens); experiment: Kinase profiling C3.2 CDK1/cyclinB human; format: biochemical; conditions: test concentration of 10^−6 M
Sequence (P06493 whole entry): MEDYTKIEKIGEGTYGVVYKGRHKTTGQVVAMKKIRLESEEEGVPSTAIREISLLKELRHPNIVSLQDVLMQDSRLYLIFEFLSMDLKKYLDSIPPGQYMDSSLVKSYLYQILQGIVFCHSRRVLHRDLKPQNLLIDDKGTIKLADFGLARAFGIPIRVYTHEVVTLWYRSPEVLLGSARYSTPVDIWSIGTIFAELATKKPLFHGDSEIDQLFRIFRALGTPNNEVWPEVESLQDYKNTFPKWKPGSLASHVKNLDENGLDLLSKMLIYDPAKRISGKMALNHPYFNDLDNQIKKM
Sequence (P14635 whole entry partner): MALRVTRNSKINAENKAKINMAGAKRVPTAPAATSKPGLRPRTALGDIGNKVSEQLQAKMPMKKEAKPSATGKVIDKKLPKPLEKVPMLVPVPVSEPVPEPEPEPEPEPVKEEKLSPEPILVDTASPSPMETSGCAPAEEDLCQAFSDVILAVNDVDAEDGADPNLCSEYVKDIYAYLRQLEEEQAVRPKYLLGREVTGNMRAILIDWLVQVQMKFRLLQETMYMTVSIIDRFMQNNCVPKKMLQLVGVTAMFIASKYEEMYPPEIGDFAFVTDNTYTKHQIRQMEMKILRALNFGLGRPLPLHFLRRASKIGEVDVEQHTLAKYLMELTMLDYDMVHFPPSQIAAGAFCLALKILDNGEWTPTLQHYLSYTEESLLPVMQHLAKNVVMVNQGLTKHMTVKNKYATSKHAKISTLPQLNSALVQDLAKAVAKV
The following compounds are shown together with reported C3.2 score values.

// query Form field: C3.2 score recorded for O=C1NCCCc2cccc(c2)-c2ncnc(n2)Nc2cccc(c2)CN[C@H]1CO with CDK1/cyclinB (h) (Homo sapiens) (enter value)
// result 4 (Score 4 = >80% inhibition)

// query Form field: C3.2 score recorded for O=C1CCN2CCN(CC2)Cc2cccc(c2)Nc2ncnc(n2)-c2ccnc(c2)NCCCN1 with CDK1/cyclinB (h) (Homo sapiens) (enter value)
// result 4 (Score 4 = >80% inhibition)

// query Request body: readout C3.2 score, system CDK1/cyclinB (h) (Homo sapiens), query CN1CCC(=O)NCCCc2cc(ccn2)-c2ncnc(n2)Nc2cccc(c2)C1 . Return the value.
// result 4 (Score 4 = >80% inhibition)

----------
Parameter: C3.7 score. Scope: all listed entries.
molecular target: CDK6/cyclinD3 human (Homo sapiens); experiment: Kinase profiling C3.7 CDK6/cyclinD3 human; format: biochemical; settings: CDK6/cyclinD3, test concentration of 10^−6 M
Sequence (Q00534 whole entry): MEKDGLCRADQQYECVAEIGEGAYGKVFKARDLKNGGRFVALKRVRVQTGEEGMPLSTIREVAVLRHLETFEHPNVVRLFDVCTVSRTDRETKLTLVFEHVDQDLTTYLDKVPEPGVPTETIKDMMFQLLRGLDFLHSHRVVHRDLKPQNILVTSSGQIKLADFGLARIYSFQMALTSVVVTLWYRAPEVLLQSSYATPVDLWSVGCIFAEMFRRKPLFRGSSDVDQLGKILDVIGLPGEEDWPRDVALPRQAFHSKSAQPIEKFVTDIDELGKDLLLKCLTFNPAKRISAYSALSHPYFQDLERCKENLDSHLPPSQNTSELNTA
Sequence (P30281 whole entry partner): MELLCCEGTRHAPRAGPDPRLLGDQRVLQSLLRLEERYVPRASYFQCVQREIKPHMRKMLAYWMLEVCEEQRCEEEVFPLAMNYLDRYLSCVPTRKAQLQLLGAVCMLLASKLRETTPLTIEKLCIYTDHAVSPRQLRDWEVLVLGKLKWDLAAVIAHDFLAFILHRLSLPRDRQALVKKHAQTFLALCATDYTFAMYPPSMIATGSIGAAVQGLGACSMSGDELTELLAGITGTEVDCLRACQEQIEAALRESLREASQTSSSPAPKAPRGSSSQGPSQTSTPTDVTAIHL

Here is how some compounds turned out for C3.7 score.
O=C1NCCCc2cncc(c2)-c2ncnc(n2)Nc2cccc(c2)CN[C@H]1CO [Compound 81]: 1 (Score 1 = 10-30% inhibition)
CCN1CC(=O)NCCCc2cc(ccn2)-c2ncnc(n2)Nc2cc(Cl)cc(c2)C1 [Compound 34]: 2 (Score 2 = 30-60% inhibition)
CN1CCCc2cc(ccn2)-c2ncnc(n2)Nc2cccc(c2)CNC(=O)C1 [Compound 7]: 1 (Score 1 = 10-30% inhibition)
CN1CCCC(=O)NCCCc2cc(ccn2)-c2ncnc(n2)Nc2cccc(c2)C1 [Compound 13]: 1 (Score 1 = 10-30% inhibition)
O=C1CN2CCN(CC2)Cc2cccc(c2)Nc2ncnc(n2)-c2ccnc(c2)CCCN1 [Compound 9]: 1 (Score 1 = 10-30% inhibition)

// query Tell me the measured C3.7 score of CN1CCC(=O)NCCCc2cc(ccn2)-c2ncnc(n2)Nc2cc(Cl)cc(c2)C1 [Compound 32] , please.
// result 1 (Score 1 = 10-30% inhibition)

// query So what does the record say about C3.7 score for CN1CC(=O)NCC#Cc2cc(ccn2)-c2ncnc(n2)Nc2cccc(c2)C1 [Compound 1] ?
// result 4 (Score 4 = >80% inhibition)

// query Give the measured C3.7 score of O=C1CCN2CCN(CC2)Cc2cc(Cl)cc(c2)Nc2ncnc(n2)-c2ccnc(c2)CCCN1 [Compound 37] .
// result 2 (Score 2 = 30-60% inhibition)

----------
pIC50: −log10 of the molar value.
UniProtKB P49840 data, read-out pIC50
Sequence (P49840 whole entry, species assumed): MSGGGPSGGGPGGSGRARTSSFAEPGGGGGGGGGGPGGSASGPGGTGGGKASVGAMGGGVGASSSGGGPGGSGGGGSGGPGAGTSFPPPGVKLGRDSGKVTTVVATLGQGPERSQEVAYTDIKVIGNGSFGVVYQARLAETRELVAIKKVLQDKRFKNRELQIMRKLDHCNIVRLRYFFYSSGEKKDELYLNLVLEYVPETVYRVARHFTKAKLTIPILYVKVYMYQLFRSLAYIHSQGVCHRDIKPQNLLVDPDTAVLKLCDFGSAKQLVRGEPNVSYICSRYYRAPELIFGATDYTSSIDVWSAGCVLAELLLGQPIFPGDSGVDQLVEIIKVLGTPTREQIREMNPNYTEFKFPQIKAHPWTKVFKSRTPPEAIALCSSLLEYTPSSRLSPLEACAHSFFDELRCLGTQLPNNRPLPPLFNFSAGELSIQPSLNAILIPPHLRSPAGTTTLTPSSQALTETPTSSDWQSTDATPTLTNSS

CN1CC(=O)NCCCc2cc(ccn2)-c2ncnc(n2)Nc2cccc(c2)C1: > 8.00
O=C1CN2CCN(CC2)Cc2cccc(c2)Nc2ncnc(n2)-c2cccc(c2)CCCN1: > 8.00
O=C1NCCCc2cc(ccn2)-c2ncnc(n2)Nc2cccc(c2)CN2CCCC12 (stereo not drawn): 6.00 to 7.00
O=C1NCCCc2cc(ccn2)-c2ncnc(n2)Nc2cccc(c2)CN2CCC1CC2: 7.00 to 8.00
CN1CCCC(=O)NCCCc2cccc(c2)-c2ncnc(n2)Nc2cccc(c2)C1: 7.00 to 8.00

Now for another entry.
// query UniProtKB P49840 / pIC50 / O=C1NCCNc2cc(ccn2)-c2ncnc(n2)Nc2cccc(c2)CN2CCC[C@H]12 : value?
// result 6.00 to 7.00

----------
target: CDK7/cyclinH/MAT1 (h) (Homo sapiens); assay: Kinase profiling C3.8 CDK7/cyclinH/MAT1 human; assay type: biochemical; conditions: CDK7/cyclinH/MAT1, test concentration of 10^−6 M
Sequence (P50613 whole entry): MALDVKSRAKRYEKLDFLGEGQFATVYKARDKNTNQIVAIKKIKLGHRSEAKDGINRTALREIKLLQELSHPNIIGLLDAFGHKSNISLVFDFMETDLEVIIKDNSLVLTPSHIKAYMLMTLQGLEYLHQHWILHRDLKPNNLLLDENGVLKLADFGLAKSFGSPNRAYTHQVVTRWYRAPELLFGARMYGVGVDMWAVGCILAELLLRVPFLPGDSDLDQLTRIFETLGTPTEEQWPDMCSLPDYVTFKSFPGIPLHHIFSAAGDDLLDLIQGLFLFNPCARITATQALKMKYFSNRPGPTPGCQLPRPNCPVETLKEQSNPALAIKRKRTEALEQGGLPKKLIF
Sequence (P51946 whole entry partner): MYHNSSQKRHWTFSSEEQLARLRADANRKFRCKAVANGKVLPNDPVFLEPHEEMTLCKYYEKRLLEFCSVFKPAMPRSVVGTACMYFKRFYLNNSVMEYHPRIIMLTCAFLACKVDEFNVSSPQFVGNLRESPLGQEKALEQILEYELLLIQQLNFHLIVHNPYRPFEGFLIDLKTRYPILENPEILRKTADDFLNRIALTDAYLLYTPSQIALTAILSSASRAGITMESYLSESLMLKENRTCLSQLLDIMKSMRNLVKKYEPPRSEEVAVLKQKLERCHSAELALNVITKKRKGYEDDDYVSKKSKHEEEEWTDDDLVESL
Sequence (P51948 whole entry partner): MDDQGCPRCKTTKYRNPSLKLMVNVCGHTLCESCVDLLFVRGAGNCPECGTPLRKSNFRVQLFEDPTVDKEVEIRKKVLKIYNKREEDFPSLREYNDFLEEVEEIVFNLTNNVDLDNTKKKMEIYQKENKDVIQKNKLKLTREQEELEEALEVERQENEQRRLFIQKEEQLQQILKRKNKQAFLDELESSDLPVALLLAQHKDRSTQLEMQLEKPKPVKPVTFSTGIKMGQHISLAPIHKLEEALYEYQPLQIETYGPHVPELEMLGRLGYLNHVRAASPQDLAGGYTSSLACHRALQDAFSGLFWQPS
quantity-measured: C3.8 score

O=C1NCCc2cccc(c2)Nc2ncnc(n2)-c2ccnc(c2)CCCN2C[C@H](O)C[C@@H]12 [Compound 25]: 2 (Score 2 = 30-60% inhibition)
O=C1NCCCc2cc(ccc2F)-c2ncnc(n2)Nc2cc(Cl)cc(c2)CN[C@H]1CO [Compound 71]: 4 (Score 4 = >80% inhibition)
O=C1NCCCc2cc(ccn2)-c2ncnc(n2)Nc2cccc(c2)CN2CCCC1C2 (stereo not shown) [Compound 15]: 2 (Score 2 = 30-60% inhibition)

// query Form: Entry = CN1CCC(=O)NCCNc2cc(ccn2)-c2ncnc(n2)Nc2cccc(c2)C1 [Compound 17] | System = CDK7/cyclinH/MAT1 (h) (Homo sapiens) | C3.8 score = ____
// result 3 (Score 3 = 60-80% inhibition)

----------
target: CDK5/p35 human (Homo sapiens, UniProt Q00535); assay: Kinase profiling C3.6 CDK5/p35 human; assay type: biochemical; details: CDK5/p35, test concentration of 10^−6 M
Sequence (Q00535 whole entry): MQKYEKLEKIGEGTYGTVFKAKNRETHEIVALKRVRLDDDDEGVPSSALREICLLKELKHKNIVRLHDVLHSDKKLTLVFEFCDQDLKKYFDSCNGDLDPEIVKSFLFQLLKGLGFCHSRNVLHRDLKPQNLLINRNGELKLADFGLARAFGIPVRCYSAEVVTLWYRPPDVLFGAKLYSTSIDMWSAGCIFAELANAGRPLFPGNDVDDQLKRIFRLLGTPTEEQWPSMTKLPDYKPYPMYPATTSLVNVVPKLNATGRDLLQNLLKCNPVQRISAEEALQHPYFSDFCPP
Sequence (Q15078 whole entry partner): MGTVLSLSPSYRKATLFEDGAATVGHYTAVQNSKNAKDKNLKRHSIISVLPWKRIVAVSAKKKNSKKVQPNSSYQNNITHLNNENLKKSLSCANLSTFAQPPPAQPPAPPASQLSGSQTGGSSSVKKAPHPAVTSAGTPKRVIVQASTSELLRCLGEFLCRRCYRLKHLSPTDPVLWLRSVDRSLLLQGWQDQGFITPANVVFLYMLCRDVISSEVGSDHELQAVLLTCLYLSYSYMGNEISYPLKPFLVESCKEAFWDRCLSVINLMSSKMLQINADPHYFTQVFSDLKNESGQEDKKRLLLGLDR
Readings of C3.6 score for the listed compounds

Some solved entries appear below for comparison.
CN1CCCc2cc(ccn2)-c2ncnc(n2)Nc2cccc(c2)CNC(=O)C1: 4 (Score 4 = >80% inhibition)
O=C1CN2CCN(CC2)Cc2cc(Cl)cc(c2)Nc2ncnc(n2)-c2ccnc(c2)CCCN1: 3 (Score 3 = 60-80% inhibition)
O=C1NCCCc2cc(ccn2)-c2ncnc(n2)Nc2cccc(c2)CN2CCCC12 (stereo not shown): 2 (Score 2 = 30-60% inhibition)
CN1CCC(=O)NCCCc2cc(ccn2)-c2ncnc(n2)Nc2cccc(c2)C1: 3 (Score 3 = 60-80% inhibition)

Let us examine a further case.
// query Which C3.6 score is reported for this compound? O=C1CN2CCN(CC2)Cc2cccc(c2)Nc2ncnc(n2)-c2cccc(c2)CCCN1
// result 3 (Score 3 = 60-80% inhibition)

----------
biological target: CDK2/cyclinE (h) (Homo sapiens); assay: Kinase profiling C3.4 CDK2/cyclinE human; format: biochemical; conditions: test concentration of 10^−6 M
quantity-measured: C3.4 score

Example entries and their recorded answers appear below.
CN1CCC(=O)NCCNc2cc(ccn2)-c2ncnc(n2)Nc2cccc(c2)C1 [Compound 20]: 4 (Score 4 = >80% inhibition)
O=C1NCCc2cccc(c2)Nc2ncnc(n2)-c2ccnc(c2)CCCN2CCCC1C2 (stereo not drawn): 4 (Score 4 = >80% inhibition)
CN1CCC(=O)NCCNc2cc(ccn2)-c2ncnc(n2)Nc2cccc(c2)C1 [Compound 17]: 4 (Score 4 = >80% inhibition)
CN1CCC(=O)NCCCc2cc(ccn2)-c2ncnc(n2)Nc2cc(Cl)cc(c2)C1: 4 (Score 4 = >80% inhibition)
O=C1CCN2CCN(CC2)Cc2cccc(c2)Nc2ncnc(n2)-c2ccnc(c2)NCCN1: 4 (Score 4 = >80% inhibition)

Proceed to the following item.
// query Which measured C3.4 score value corresponds to O=C1CN2CCN(CC2)Cc2cccc(c2)Nc2ncnc(n2)-c2cncc(c2)CCCN1 ?
// result 3 (Score 3 = 60-80% inhibition)

----------
biological target: UniProt P07947; assay: Kinase profiling C3.10 Yes human; format: biochemical; settings: test concentration of 10^−6 M
Sequence (P07947 whole entry): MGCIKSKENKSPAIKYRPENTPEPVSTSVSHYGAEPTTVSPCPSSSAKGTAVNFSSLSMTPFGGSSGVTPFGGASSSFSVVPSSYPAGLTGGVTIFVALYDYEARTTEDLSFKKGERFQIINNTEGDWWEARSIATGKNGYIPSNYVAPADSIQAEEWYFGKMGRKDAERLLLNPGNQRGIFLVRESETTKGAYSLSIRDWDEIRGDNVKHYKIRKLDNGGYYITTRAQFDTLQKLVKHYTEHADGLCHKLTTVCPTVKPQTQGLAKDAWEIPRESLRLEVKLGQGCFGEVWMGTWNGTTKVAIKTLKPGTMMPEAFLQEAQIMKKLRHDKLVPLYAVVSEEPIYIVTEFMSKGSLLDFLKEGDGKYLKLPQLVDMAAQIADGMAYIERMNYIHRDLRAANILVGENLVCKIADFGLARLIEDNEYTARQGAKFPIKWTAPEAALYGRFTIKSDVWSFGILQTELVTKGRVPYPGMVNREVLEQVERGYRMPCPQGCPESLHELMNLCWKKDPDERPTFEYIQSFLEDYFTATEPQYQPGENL
quantity-measured: C3.10 score

CN1CC(=O)NC/C(Cl)=C/c2cc(ccn2)-c2ncnc(n2)Nc2cccc(c2)C1: 4 (Score 4 = >80% inhibition)

// query Need C3.10 score of CN1CCCC(=O)NCCCc2cc(ccn2)-c2ncnc(n2)Nc2cccc(c2)C1 , thanks.
// result 1 (Score 1 = 10-30% inhibition)

// query Consider the molecule shown here: O=C1CN2CCN(CC2)Cc2cccc(c2)Nc2ncnc(n2)-c2ccnc(c2)CCCN1 What is its recorded C3.10 score?
// result 1 (Score 1 = 10-30% inhibition)

// query What C3.10 score value was documented for this molecule, O=C1NCCCc2cc(ccc2F)-c2ncnc(n2)Nc2cc(Cl)cc(c2)CN[C@H]1CO ?
// result 4 (Score 4 = >80% inhibition)

----------
target: CDK5/p35 human (Homo sapiens, UniProt Q00535); test: Kinase profiling C3.6 CDK5/p35 human; assay type: biochemical; details: CDK5/p35, test concentration of 10^−6 M
Quick reference: C3.6 score of the listed items.

Record excerpt, results attached:
O=C1CCN2CCN(CC2)Cc2cccc(c2)Nc2ncnc(n2)-c2ccnc(c2)NCCN1 [Compound 19]: 3 (Score 3 = 60-80% inhibition)
O=C1NCCc2cccc(c2)Nc2ncnc(n2)-c2ccnc(c2)CCCN2C[C@H](O)C[C@@H]12 [Compound 25]: 2 (Score 2 = 30-60% inhibition)
O=C1CN2CCN(CC2)Cc2cccc(c2)Nc2ncnc(n2)-c2ccnc(c2)CCCN1 [Compound 36]: 3 (Score 3 = 60-80% inhibition)
O=C1NCCCc2cccc(c2)-c2ncnc(n2)Nc2cccc(c2)CN[C@H]1CO [Compound 46]: 4 (Score 4 = >80% inhibition)
O=C1CN2CCN(CC2)Cc2cccc(c2)Nc2ncnc(n2)-c2ccc(F)c(c2)CCCN1 [Compound 66]: 3 (Score 3 = 60-80% inhibition)
CN1CCC(=O)NCCNc2cc(ccn2)-c2ncnc(n2)Nc2cccc(c2)C1 [Compound 17]: 4 (Score 4 = >80% inhibition)
O=C1NCCCNc2cc(ccn2)-c2ncnc(n2)Nc2cccc(c2)CN2CCC[C@@H]12 [Compound 21]: 3 (Score 3 = 60-80% inhibition)

Read the next record carefully.
// query Which C3.6 score value is on record for CN1CC(=O)NCCCc2cc(ccn2)-c2ncnc(n2)Nc2cc(Cl)ccc2C1 [Compound 31] ?
// result 4 (Score 4 = >80% inhibition)
